Measured SPOT peptide array binding signal intensity, listed per entry.
- targetSystem: ScPex13
- assay: SPOT peptide array binding signal intensity (averaged, normalized) (arbitrary units (background-subtracted, floor 0; scale differs between SH3 domains)); higher = stronger binding of the SH3 domain to the peptide
quantityMeasured: SPOT peptide array binding signal intensity

binder	endpointResult
PALPSLPPPPLLNVD	≤ 0
EREKALPPIPFTTTL	86.8
GKFIPSRPAPKPPSS	1460
EQEEIAPSLPSRNSI	646
KKIRLIFTYPSTVGR	14.5
PLRRTVMSLPGNHDI	177
NPNRRAPRRPLSTQH	23.5
TSFKGRPKPPKTLKH	1.5
TTNRGPPPLPPRANV	2050
DHPKGPPPPPPPDEK	≤ 0
TIRRRAPLSLLESHT	1
PSRRDSLSIPRAVDA	1
RRARRQMGIPTISQV	96.9
VPPVPLPFGIPPFPM	772
FFRRSELYLPNSSKA	≤ 0
PIVPSSPAPPLPLSG	≤ 0
QNTPPLPPKPKSPHL	1360
VGFRLALKFPSRITG	67.8
RRASLFPRDPKRLRP	≤ 0
KTKQQKPAIPQKKSF	0.75
DRIRMFIRFPKFLLE	14.8
KRNRLKILLPFLEQS	0.25
PKMLPIPSKPTLFDL	229
QTMRQAPKRPDADVA	766
QDKEGIPPDQQRLIF	≤ 0
KDKKTKPTPPPKPSH	≤ 0
VQKRKLPLPGSIASA	1
LYKRKPILLPDPKPL	≤ 0
NSMRPPLLIPAATTK	222
SLSRRRFSLPSMPNV	38
